# experiment notes: basal 3T3-L1 adipocyte mitochondrial potential changes, profiling panel, cell-based, JC-1 fluorescence, 3T3-L1 adipocytes, 24 h, 100 nL compound (AID 1168); note: test concentration not given here
# reported conditions: JC-1 mitochondrial fluorescence, higher = more signal, called active from +8 up or from −8 down
observation type: z-score
// no unit string in output, number only

Reference set, count: 4
CCCC[C@@H]1C[C@H]1[C@@H](NC(=O)c1ccccc1)c1ccc(C(=O)OC)cc1
-1.18
COc1ccccc1CN1C(=O)c2ccccc2[C@@]2(Cc3ccccc3N(CC(C)C)C2=O)[C@@H]1c1ccc(CO)cc1
0.211
Cc1ccc(N2C(=O)c3ccccc3[C@@H](C(=O)NC3CC3)[C@@H]2c2ccc(CO)cc2)nc1
-0.289
COc1cccc(-c2cccc(=O)o2)c1
0.236

QUERY: Value lookup for z-score; key = C=CCOC(=O)[C@@H]1[C@H]2C(=O)O[C@H](c3ccccc3)[C@H](c3ccccc3)N2[C@H](c2ccc(OCCOC(=O)[C@@H]3C[C@@H]4C(=O)NCC(=O)N4[C@@H]3c3ccc(O)cc3)cc2)[C@@]12C(=O)Nc1ccc(I)cc12
RESULT: -0.444

QUERY: Next compound up: COCCOC(=O)N1C(=O)[C@@]2(c3ccccc31)[C@H](c1ccc(O)cc1)N1[C@H](c3ccccc3)[C@H](c3ccccc3)OC(=O)[C@H]1[C@@H]2C(=O)Nc1nc2ccccc2s1
RESULT: -1.17

QUERY: Next compound up: C=CCOC(=O)[C@H]1[C@@H]2C(=O)O[C@@H](c3ccccc3)[C@@H](c3ccccc3)N2[C@@H](c2ccc(OCCOC(=O)[C@@H]3C[C@@H]4C(=O)N[C@@H](CC(C)C)C(=O)N4[C@@H]3c3ccc(O)cc3)cc2)[C@]12C(=O)Nc1ccccc12
RESULT: 0.0514

QUERY: Next compound up: O=C1c2ccccc2[C@](Cc2ccccc2I)(C(=O)NCCN2CCOCC2)[C@H](c2ccc(CO)cc2)N1C1CCCCC1
RESULT: -1.01

QUERY: Next compound up: COC(=O)[C@@]1(Cc2ccccc2)[C@H]2c3cc(C(=O)N4CCCC4)n(Cc4ccc(S(C)(=O)=O)cc4)c3C[C@H]2CN1C(=O)c1ccccc1
RESULT: -1.62

QUERY: Next compound up: CN(C)CCCC[C@@H]1NC(=O)[C@@H]2C[C@H](C(=O)NCCCCCCN)[C@H](c3cccc(OCCO)c3)N2C1=O
RESULT: -0.735

QUERY: Next compound up: C=CC[C@@]12N=C(c3ccc(OCCCO)cc3)O[C@@H]1c1ccccc1N(C)C2=O
RESULT: 1.51

QUERY: Next compound up: CC(C)N1C(=O)[C@@]2(Cc3ccccc31)c1ccccc1C(=O)N(Cc1ccccc1Cl)[C@H]2c1ccc(CO)cc1
RESULT: 0.111

----------
# experiment notes: P. aeruginosa biofilm formation inhibitors, primary screen, PAO1 strain, BacTiter-Glo luminescence, LB-PBS (AID 1144)
# reported conditions: 12 h, higher = more signal
observation type: z-score
// no unit string in output, number only

Reference set, count: 5
C=C(CCCC)/C(=C/C[C@H](OC(=O)c1ccncc1)c1ccccc1OCCO)c1cnc2ccccc2c1
0.0698
O=C1C2C=CC(C(O)CCc3ccccc3)N(Nc3ccccc3F)C2C(=O)N1c1ccccc1 (configuration not stated)
-0.315
CC(C)=CCN[C@H](CO)c1ccccc1
-0.0678
COCCOC(=O)N1C(=O)[C@@]2(c3cc(C#CCC(C(=O)OC)C(=O)OC)ccc31)[C@H](C(=O)N1CCN(c3ncccn3)CC1)[C@H]1C(=O)O[C@H](c3ccccc3)[C@H](c3ccccc3)N1[C@@H]2c1ccccc1OCCO
1.13
C=CCC(OC(C)=O)[C@@H]1[C@@H](N(Cc2cc3ccccc3o2)C(=O)c2cccc3ccccc23)c2cc(OCCCO)ccc2N1C(=O)c1ccc(-c2ccccc2)cc1 (some centres not stated)
0.861

QUERY: Value lookup for z-score; key = COC(=O)[C@@]1(Cc2ccc(F)cc2)[C@H]2c3cc(C(=O)N4CCCC4)n(Cc4ccc(S(C)(=O)=O)cc4)c3C[C@H]2CN1C(=O)c1ccccc1
RESULT: 0.53

QUERY: Next compound up: C=C(COC)/C(=C/C[C@H](OC(C)=O)c1ccc(CO)o1)c1cc(C(=O)OC)ccc1OC
RESULT: -0.261

----------
# target system: Neurogenic locus notch homolog protein 2 (Homo sapiens) (UniProt Q04721)
# Sequence (Q04721 whole entry, looked up): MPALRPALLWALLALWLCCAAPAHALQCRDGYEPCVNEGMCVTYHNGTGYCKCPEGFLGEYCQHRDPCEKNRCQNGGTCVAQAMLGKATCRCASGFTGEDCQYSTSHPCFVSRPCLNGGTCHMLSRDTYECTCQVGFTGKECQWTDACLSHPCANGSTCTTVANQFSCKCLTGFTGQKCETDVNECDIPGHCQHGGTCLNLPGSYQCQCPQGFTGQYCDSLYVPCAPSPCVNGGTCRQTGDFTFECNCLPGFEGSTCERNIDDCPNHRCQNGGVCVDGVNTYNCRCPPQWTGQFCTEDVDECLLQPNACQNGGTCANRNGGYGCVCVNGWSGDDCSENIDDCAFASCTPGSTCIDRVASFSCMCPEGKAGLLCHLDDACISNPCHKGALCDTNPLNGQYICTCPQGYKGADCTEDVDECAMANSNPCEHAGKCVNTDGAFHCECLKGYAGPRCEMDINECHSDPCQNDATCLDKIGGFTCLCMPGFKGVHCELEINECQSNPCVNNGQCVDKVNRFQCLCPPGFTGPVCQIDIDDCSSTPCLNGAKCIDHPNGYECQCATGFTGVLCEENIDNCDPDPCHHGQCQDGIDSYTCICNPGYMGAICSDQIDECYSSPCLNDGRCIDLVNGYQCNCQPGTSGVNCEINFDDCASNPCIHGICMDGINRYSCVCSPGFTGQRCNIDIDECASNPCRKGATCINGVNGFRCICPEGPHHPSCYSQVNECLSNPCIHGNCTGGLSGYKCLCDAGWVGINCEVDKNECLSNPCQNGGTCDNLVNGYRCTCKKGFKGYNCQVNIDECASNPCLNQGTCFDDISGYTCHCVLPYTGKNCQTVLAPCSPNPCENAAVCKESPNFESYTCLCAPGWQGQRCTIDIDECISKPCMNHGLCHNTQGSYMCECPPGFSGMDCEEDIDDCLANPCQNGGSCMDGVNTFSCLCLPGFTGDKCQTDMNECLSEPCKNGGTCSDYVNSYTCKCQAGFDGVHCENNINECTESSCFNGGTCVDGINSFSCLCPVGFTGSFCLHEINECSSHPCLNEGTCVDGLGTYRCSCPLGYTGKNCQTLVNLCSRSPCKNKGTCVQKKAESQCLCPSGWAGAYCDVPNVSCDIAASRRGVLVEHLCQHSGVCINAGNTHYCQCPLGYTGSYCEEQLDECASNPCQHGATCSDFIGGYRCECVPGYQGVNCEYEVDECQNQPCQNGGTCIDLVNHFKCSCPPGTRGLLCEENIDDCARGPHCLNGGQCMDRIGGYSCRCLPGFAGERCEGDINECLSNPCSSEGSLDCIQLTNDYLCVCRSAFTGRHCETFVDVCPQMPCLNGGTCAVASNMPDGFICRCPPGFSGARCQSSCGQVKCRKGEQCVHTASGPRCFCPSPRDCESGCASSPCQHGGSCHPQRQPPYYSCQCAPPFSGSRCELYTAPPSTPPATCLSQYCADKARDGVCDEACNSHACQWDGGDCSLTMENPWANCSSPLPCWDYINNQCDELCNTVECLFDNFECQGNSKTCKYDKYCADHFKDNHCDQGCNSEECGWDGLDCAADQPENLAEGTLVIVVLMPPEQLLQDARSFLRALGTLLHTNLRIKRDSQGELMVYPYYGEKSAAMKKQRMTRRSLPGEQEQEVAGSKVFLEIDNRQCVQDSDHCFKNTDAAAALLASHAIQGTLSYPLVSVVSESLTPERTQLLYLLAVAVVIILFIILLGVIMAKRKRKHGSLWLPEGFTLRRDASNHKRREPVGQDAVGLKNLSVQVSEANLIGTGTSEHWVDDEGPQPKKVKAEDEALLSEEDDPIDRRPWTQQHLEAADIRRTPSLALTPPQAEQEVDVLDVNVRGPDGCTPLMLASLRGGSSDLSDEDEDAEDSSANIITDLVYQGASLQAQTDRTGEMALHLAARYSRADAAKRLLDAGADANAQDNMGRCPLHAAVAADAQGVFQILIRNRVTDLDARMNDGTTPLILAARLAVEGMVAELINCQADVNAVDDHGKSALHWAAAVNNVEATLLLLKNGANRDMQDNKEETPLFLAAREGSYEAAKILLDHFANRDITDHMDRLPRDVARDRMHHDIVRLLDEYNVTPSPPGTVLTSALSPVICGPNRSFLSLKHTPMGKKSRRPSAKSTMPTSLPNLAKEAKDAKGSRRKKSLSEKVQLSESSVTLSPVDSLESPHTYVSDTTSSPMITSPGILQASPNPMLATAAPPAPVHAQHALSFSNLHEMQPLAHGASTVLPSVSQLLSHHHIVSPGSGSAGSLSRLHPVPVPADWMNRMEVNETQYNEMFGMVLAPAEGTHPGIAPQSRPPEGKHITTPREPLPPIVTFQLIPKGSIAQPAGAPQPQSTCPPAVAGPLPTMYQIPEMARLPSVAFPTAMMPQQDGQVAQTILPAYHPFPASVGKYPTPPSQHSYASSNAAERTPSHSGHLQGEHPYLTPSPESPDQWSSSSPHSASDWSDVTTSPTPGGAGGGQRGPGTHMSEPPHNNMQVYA
# experiment notes: Notch2 binders on small-molecule microarrays, primary screen, biochemical, small-molecule microarray, 635 nm fluorescence, stem cell growth factors (AID 1073)
# reported conditions: Notch2 binding, higher = more signal
Think of 0.9 as a floor: if composite z-score stands on it or above, it is y; beneath it, n.

Reference set (5 entries):
COC(=O)[C@@]1(Cc2ccccc2)[C@H]2c3cc(C(=O)N(C)C)n(Cc4ccsc4Br)c3C[C@H]2CN1C(=O)c1ccccc1
y
O=C(N1CCCCC1)[C@]1(Cc2ccccc2)N=C(c2ccc(OCCCO)cc2)O[C@@H]1c1ccccc1
y
CCCC[C@@H]1C[C@H]1[C@@H](NC(=O)c1cccs1)c1ccc(-c2ccccc2)cc1
n
CCOC(=O)C[C@H]1[C@H](OC(=O)c2ccc(C(=O)c3ccccc3)cc2)[C@@H](NC(=O)c2ccccc2)c2cc(OCCCO)ccc2N1C(=O)Cc1ccc(OC)cc1
n
COc1ccc(CCNC(=O)[C@@]2(Sc3ccc(C)cc3)CC(=O)N(C3Cc4ccccc4C3)[C@@H]2c2ccc(CO)cc2I)cc1
n

QUERY: Please tell me: is the compound C=C(C)[C@@H]1CC=C(C(O)C2C=CC3C(=O)N(C)C(=O)C3N2Nc2ccccc2)CC1 (some centres undefined) at or over 0.9 in terms of composite z-score?
RESULT: y

QUERY: Next compound up: C=C[C@H](OC)[C@@H](OC(=O)Nc1ccc(OC)cc1)c1ccc(O)c(F)c1
RESULT: n

QUERY: Next compound up: C[N+](C)(C)CCCCNC(=O)[C@@H]1C[C@@H]2C(=O)N[C@@H](Cc3ccccc3)C(=O)N2[C@@H]1c1cccc(OCCO)c1
RESULT: n

QUERY: Next compound up: COc1ccc(C#Cc2ccc3c(c2)[C@]2(C(=O)N3)[C@H](C(=O)Nc3nc4ccccc4s3)[C@H]3C(=O)O[C@H](c4ccccc4)[C@H](c4ccccc4)N3[C@@H]2c2ccc(O)cc2)cc1
RESULT: y

QUERY: Next compound up: O=C(c1ccccc1)N1C(=O)[C@@]2(Cc3ccccc31)N=C(c1ccc(OCCCO)cc1)O[C@H]2c1ccccc1
RESULT: y

QUERY: Next compound up: COCCOC(=O)N1C(=O)[C@@]2(c3cc(C#CCNC(N)=O)ccc31)[C@H](C(=O)Nc1nc3ccccc3s1)[C@H]1C(=O)O[C@H](c3ccccc3)[C@H](c3ccccc3)N1[C@@H]2c1ccc(OCCO)cc1
RESULT: n

QUERY: Next compound up: CCC[C@@H]1C[C@@]1(CCC)[C@@H](NC(=O)c1ccccc1)c1cccc(Cl)c1
RESULT: y

----------
As shown below, each of these compounds has a reported composite z-score value.
# Tested on: PRMT1 (protein arginine N-methyltransferase 1)
# experiment notes: PRMT1 binders on small-molecule microarrays, primary screen, biochemical, small-molecule microarray, 635 nm fluorescence (AID 1088);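 note: binding of Prmt1 protein to compounds spotted on small-molecule microarray slides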
# reported conditions: small-molecule microarray binding, higher = more signal
// no unit string in output, number only

Reference set, count: 2
COC(=O)[C@@]1(Cc2ccc(F)cc2)[C@H]2c3cc(C(=O)N(C)C)n(Cc4cc(F)c(F)c(F)c4)c3C[C@H]2CN1C(=O)c1ccccc1
-0.0972
CCS[C@H]1[C@@H](C(=O)O)[C@H](c2ccc(C)cc2)N(S(=O)(=O)c2ccc(C)cc2)[C@@H]1CC
0.811

QUERY: Value lookup for composite z-score; key = CCCc1cc2c(n1Cc1cc(F)cc(F)c1)C(C)C1CN(C(=O)c3ccccc3)C(C)(C(=O)OC)C21 (stereo not drawn)
RESULT: 0.497

QUERY: Next compound up: O=C(c1ccccc1)N1C(=O)[C@]2(COC(c3ccc(OCCCO)cc3)=N2)Cc2ccccc21
RESULT: 1.53

QUERY: Next compound up: C=CCNC(=O)[C@@H]1[C@H]2C(=O)O[C@H](c3ccccc3)[C@H](c3ccccc3)N2[C@H](c2ccccc2OCCO)[C@@]12C(=O)N(C(=O)OCCOC)c1ccccc12
RESULT: 1.54

----------
As shown below, each of these compounds has a reported composite z-score value.
# System: Sam68 (KHDRBS1)
# experiment notes: Sam68 small-molecule binders, primary screen, biochemical, small-molecule microarray, 635 nm fluorescence (AID 1125);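 note: score merges 667 nm channel intensity with signal to noise over triplicate slides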
# reported conditions: small-molecule microarray binding, higher = more signal
// no unit string in output, number only

CC(C)C[C@@H]1NC(=O)[C@@H]2C[C@H](C(=O)O)[C@H](c3cccc(OCCO)c3)N2C1=O
-0.0754

--- query ---
QUERY: Provide value of composite z-score for this record tested with Sam68 (KHDRBS1): COC(=O)[C@H](Cc1ccccc1)N[C@@H](/C=C/C1CC1)[C@H](O)Cc1ccccc1
RESULT: -0.0844
